- target-system: 5-hydroxytryptamine receptor 1B (Homo sapiens)
- Sequence (P28222 whole entry): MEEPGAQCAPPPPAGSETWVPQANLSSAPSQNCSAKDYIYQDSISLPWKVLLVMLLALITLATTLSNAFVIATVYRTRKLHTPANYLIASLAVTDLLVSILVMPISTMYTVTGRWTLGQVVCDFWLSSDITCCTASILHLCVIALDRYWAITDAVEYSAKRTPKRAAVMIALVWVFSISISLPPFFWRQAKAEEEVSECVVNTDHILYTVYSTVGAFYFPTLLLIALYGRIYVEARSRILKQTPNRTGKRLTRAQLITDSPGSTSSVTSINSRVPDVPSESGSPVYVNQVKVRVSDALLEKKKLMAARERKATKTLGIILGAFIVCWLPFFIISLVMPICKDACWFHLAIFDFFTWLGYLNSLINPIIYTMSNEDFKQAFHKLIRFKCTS
measurement-kind: pKi
Numbers only, as −log10 of the molar value.

**Q:** Requested read-out: pKi. Entry: C[C@H](N)Cc1c[nH]c2ccc3c(c12)CCCO3
**A:** 5.48

###

- target-system: 5-hydroxytryptamine receptor 7 (Homo sapiens, UniProt P34969)
- Sequence (P34969 whole entry): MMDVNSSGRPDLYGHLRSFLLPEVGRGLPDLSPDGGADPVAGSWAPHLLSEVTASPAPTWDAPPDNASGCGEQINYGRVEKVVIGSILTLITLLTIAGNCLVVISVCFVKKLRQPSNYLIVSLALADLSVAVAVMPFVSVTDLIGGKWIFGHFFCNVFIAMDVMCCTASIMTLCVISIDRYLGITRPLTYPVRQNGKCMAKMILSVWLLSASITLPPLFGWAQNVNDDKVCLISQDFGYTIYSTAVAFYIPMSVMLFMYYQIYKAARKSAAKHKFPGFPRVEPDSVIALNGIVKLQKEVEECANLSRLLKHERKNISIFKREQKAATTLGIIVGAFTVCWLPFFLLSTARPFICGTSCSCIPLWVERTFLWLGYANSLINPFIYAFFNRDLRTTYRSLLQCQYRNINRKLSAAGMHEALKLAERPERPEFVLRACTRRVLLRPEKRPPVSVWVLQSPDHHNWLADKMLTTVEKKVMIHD
measurement-kind: Ki (µM)
Give bare numbers, in µM.

**Q:** Requested read-out: Ki. Entry: CC(N)Cc1c[nH]c2ccc3c(c12)CCCO3 (stereo unspecified)
**A:** 24

###

So I've got a bunch of compounds here, and I need their EC50 values.
- target-system: 5-hydroxytryptamine receptor 2A (Rattus norvegicus)
- Sequence (P14842 whole entry): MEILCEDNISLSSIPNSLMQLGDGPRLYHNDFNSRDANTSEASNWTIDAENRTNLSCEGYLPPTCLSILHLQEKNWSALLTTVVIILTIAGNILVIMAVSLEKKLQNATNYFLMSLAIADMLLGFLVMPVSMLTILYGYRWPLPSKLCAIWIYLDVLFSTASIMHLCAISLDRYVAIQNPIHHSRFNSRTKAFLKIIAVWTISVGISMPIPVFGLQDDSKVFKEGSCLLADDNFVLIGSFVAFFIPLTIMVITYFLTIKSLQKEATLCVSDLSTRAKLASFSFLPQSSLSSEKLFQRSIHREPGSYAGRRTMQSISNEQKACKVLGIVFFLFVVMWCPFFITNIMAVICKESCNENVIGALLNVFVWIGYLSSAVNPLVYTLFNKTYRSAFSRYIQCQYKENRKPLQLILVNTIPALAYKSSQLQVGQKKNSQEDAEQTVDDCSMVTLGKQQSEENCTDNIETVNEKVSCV
- assay-remarks: In vitro relative agonist activity against 5-hydroxytryptamine 2A using PI assay in rat vascular smooth muscle cells
One number for each entry, in nM.

compound: Cn1cc(CCN)c2c3c(ccc21)OCCC3
target-system: 5-hydroxytryptamine receptor 2A (Rattus norvegicus)
EC50 [nM]: 213

Okay, here is my list. What is EC50 for each of these?
1. C[C@@H](N)Cc1c[nH]c2ccc3c(c12)CCCO3
2. CC(N)Cc1cn(C)c2ccc3c(c12)CCCO3 (configuration not stated)
3. COc1ccc2[nH]cc(CC(C)N)c2c1 (configuration not stated)

**A:**
1: 292; 2: 134; 3: 285
